Values compiled from ChEMBL document CHEMBL5442219.

measured target: Histamine H3 receptor (Homo sapiens)
condition details: Compound concentration 10 µM
Description: PDSP Primary Binding target: HRH3 - Compounds are tested at 10 uM concentration, plate are incubated at room temperature in the dark for 90 minutes. Reaction are stopped by vacuum filtration onto 0.3% polyethyleneimine soaked filter mats using Filtermate harvester. Scintilation cocktail is then melted onto microwave-dried filters on a hot plate and the radio activity is counted in Microbia counter.
test readout: inhibition

| molecule | test readout | observed measurement |
| --- | --- | --- |
| COc1cc2nc(N3CCN(C(=O)c4ccco4)CC3)nc(N)c2cc1OC | inhibition | 8.21% |
| Cc1ccccc1N1CCN(S(=O)(=O)C[C@]23CC[C@H](C[C@@H]2NC(=O)[C@@H](N)CCS(C)(=O)=O)C3(C)C)CC1 | inhibition | -8.2% |
| Cc1c(P(=S)(c2ccccc2)c2ccccc2)n2ccccc2[n+]1C/C=C/c1ccccc1 | inhibition | 15% |
| C[C@@H](NCCc1ccc(O)cc1)[C@@H](O)c1ccc(O)cc1 (relative stereo) | inhibition | 0.59% |
| CC1(C)SSC(C)(C)[C@@H](NC(=O)[C@@H](N)Cc2ccc(O)cc2)C(=O)NCC(=O)N[C@@H](Cc2ccccc2)C(=O)N[C@H]1C(=O)O | inhibition | -2.58% |
| CC(C)NCC(O)c1ccc(N)c(C#N)c1 (stereo not given) | inhibition | 3.66% |
| CC(C)NCC(O)COc1cccc2ccccc12 (stereo not given) | inhibition | 5.07% |
| Cc1cc(NC(=O)Nc2ccc(N(C)C)cc2)c2cc(F)cc(F)c2n1 | inhibition | 28.6% |
| O=C(O)C1CN(Cc2ccc(-c3nc4cc(Cc5ccccc5F)ccc4s3)c(F)c2)C1 | inhibition | 1.61% |
| CCCCCNC(=O)NS(=O)(=O)c1cc([N+](=O)[O-])ccc1NC1CCCCC1 | inhibition | 11.4% |
